Listing of recorded IC50 by entry.
Tested on: Vero
Experiment: Cytotoxic effect on host cells during stationary phase of virus in vero cell cultures using MTT method
Format: functional, cell-based
Details: Chlorocebus sabaeus

Input: // map Nc1nccc2c1ncn2[C@@H]1C=C(CO)[C@@H](O)[C@H]1O to recorded IC50 (system: Vero)
Output: > 500 µg/mL

Input: // map Nc1ncnc2c1ncn2[C@@H]1C=C(CO)[C@@H](O)[C@H]1O [NEOPLANOCIN A] to recorded IC50 (system: Vero)
Output: 152 µg/mL

Input: // map C[C@@H](O)C1=C[C@@H](n2cnc3c(N)nccc32)[C@H](O)[C@@H]1O to recorded IC50 (system: Vero)
Output: > 500 µg/mL

Input: // map C[C@H](O)C1=C[C@@H](n2cnc3c(N)nccc32)[C@H](O)[C@@H]1O to recorded IC50 (system: Vero)
Output: > 500 µg/mL

Input: // map C[C@@H](O)C1=C[C@@H](n2cnc3c(N)ncnc32)[C@H](O)[C@@H]1O to recorded IC50 (system: Vero)
Output: > 500 µg/mL

Input: // map C[C@H](O)C1=C[C@@H](n2cnc3c(N)ncnc32)[C@H](O)[C@@H]1O to recorded IC50 (system: Vero)
Output: > 500 µg/mL
